Kindly state Plant response rating, Kochia for each of the entries shown.
test system: kochia (Kochia scoparia); test: Test C pre/postemergence; format: in vivo; conditions: Preemergence, 250 g ai/ha; scale 0 to 100
Numbers only.

For orientation, consider the following solved cases.
>  <molecule>
CN(C)N=Cc1nc(C2CC2)nc(N)c1Br [Compound 50]

>  <assayed-target>
kochia (Kochia scoparia)

>  <readout-value>
20

$$$$
>  <molecule>
CCOC(=O)C(Cl)c1nc(C2CC2)nc(N)c1Br (stereo not drawn) [Compound 31]

>  <assayed-target>
kochia (Kochia scoparia)

>  <readout-value>
70

$$$$
>  <molecule>
COC(=O)Cc1nc(C2CC2)nc(N)c1Br [Compound 13]

>  <assayed-target>
kochia (Kochia scoparia)

>  <readout-value>
85

$$$$
>  <molecule>
CNN=Cc1nc(C2CC2)nc(N)c1Br [Compound 49]

>  <assayed-target>
kochia (Kochia scoparia)

>  <readout-value>
100

$$$$
>  <molecule>
COC(=O)CNc1nc(C2CC2)nc(C(=O)OC)c1Br [Compound 10]

>  <assayed-target>
kochia (Kochia scoparia)

>  <readout-value>
45

$$$$

Name the reported Plant response rating, Kochia value associated with the molecule COC(=O)c1nc(C2CC2C)nc(N)c1Br (stereo not drawn) [Compound 28] 90

----------
system: soybean (Glycine max); experiment: Test C pre/postemergence; type: in vivo; conditions: Glycine max, pre-emergence, Preemergence, 125 g ai/ha; scale 0 to 100; read-out: Plant response rating, Soybean
Kindly state plant injury at 125 g/ha for each of the entries shown.

For orientation, consider the following solved cases.
>  <compound>
CCOC(=O)c1nc(-c2ccc(Cl)cc2)nc(N)c1Cl [Compound 64]

>  <readout-value>
85%

$$$$
>  <compound>
Nc1nc(C2CC2)nc(C(=O)OCc2ccccc2)c1Br [Compound 22]

>  <readout-value>
95%

$$$$
>  <compound>
COC(=O)c1nc(C2CC2)nc(N)c1F [Compound 25]

>  <readout-value>
65%

$$$$

Proceed to the following item.
Name the reported plant injury at 125 g/ha value associated with the compound CNc1nc(C2CC2)nc(C(=O)OC)c1Br [Compound 5] 90%

----------
test system: velvetleaf (Abutilon theophrasti); assay: Test C pre/postemergence; assay type: in vivo; settings: Postemergence, 31 g ai/ha
reported-property: Plant response rating (scale of 0 to 100), Velvetleaf
One number for each entry.

Record Plant response rating (scale of 0 to 100), Velvetleaf per entry; entries follow.
1. COC(=O)c1nc(C2CC2)nc(N=CN(C)C)c1Br [Compound 19]
2. Nc1nc(-c2ccc(Cl)cc2)nc(C(=O)O)c1Br [Compound 88]
3. CCCCOC(=O)c1nc(C2CC2)nc(N)c1Cl [Compound 76]
4. CCCCOC(=O)c1nc(C2CC2)nc(N)c1Br [Compound 16]

1. 40
2. 85
3. 80
4. 55

----------
test system: kochia (Kochia scoparia); test: Test C pre/postemergence; type: in vivo; conditions: Postemergence, 500 g ai/ha; scale 0 to 100
Kindly state Plant response rating, Kochia for each of the entries shown.
Give bare numbers.

For orientation, consider the following solved cases.
>  <compound>
COC(=O)c1nc(C2CC2C)nc(N)c1Br (stereo not shown) [Compound 28]

>  <reported-property>
Plant response rating, Kochia

>  <readout-value>
95

$$$$
>  <compound>
CC(=O)NN=Cc1nc(C2CC2)nc(N)c1Br [Compound 51]

>  <reported-property>
Plant response rating, Kochia

>  <readout-value>
95

$$$$
>  <compound>
CN(C)N=Cc1nc(C2CC2)nc(N)c1Br [Compound 50]

>  <reported-property>
Plant response rating, Kochia

>  <readout-value>
95

$$$$

Name the reported Plant response rating, Kochia value associated with the compound COC(=O)CNc1nc(C2CC2)nc(C(=O)OC)c1Br [Compound 10] 100
